Provenance of the data: ChEMBL document CHEMBL1157539

Give measured Inhibition for each item. Keep answers brief.
Tested on: Plasmodium falciparum
Test: GSK_TCMDC: Inhibition of Plasmodium falciparum 3D7 in whole red blood cells, using parasite LDH activity as an index of growth. Test compounds present at 2uM
Format: functional
Supply the numeric figure in %, leaving out any unit text.

Lab book: Inhibition of Cl.Clc1ccc(OC2CCC(Cn3ccnc3)(c3ccc(Cl)cc3Cl)CC2)c(Cl)c1 (configuration not stated) noted as 98

Lab book: Inhibition of COc1ccc2nccc([C@@H](O)CN3CCC(NC(=O)c4cc5ccccc5[nH]4)CC3)c2c1.CS(=O)(=O)O noted as 96

Lab book: Inhibition of COc1ccc2c(=O)c(-c3ccc(OC(F)(F)F)cc3)c(C)[nH]c2c1 noted as 97

Lab book: Inhibition of COCc1nc(-c2ccccc2)nc(N2CCN(C(=O)NC(C)C)CC2)c1Cc1ccccc1F noted as 96

Lab book: Inhibition of Cl.Oc1c(CNC2CCCCC2)cc(Cl)c2ccccc12 noted as 98

Lab book: Inhibition of Cc1cc(C=C2SC(=Nc3ccccc3)N(C3CCCC3)C2=O)c(C)n1-c1ccc(Cl)cc1 noted as 100

Lab book: Inhibition of COc1ccc(COc2c(OC)cc(Cc3cnc(N)nc3N)cc2OC)cc1 noted as 90

Lab book: Inhibition of CC(CCCCC(=O)Nc1ccc(CC(C)NCCc2cccc(Cl)c2)cc1)NCCc1cccc(Cl)c1 (configuration not stated) noted as 91

Lab book: Inhibition of O=C(c1cccc(Br)c1)N1CCN(c2ccc([N+](=O)[O-])c(NC3CC3)c2)CC1 noted as 99

Lab book: Inhibition of CSc1c(CNCCCNc2cc(=O)c3ccccc3[nH]2)[nH]c2ccccc12 noted as 87

Lab book: Inhibition of COc1cccc(CCNCc2ccc(-c3cccc(CNC4CCCC4)c3)cc2)c1.O=C(O)C(F)(F)F noted as 100

Lab book: Inhibition of Cc1c(CCc2cccc(F)c2F)[nH]c2ccccc2c1=O noted as 91

Lab book: Inhibition of C=CCn1c(C)cc(C(=O)COc2ccc(S(=O)(=O)N3CCOCC3)cc2[N+](=O)[O-])c1C noted as 94

Lab book: Inhibition of O=C(Nc1ccc(S(=O)(=O)NCCCN2CCOCC2)cc1)c1cc(-c2ccccc2)[nH]n1 noted as 82

Lab book: Inhibition of COc1ccc2nccc([C@@H](O)CN3CCC(NC(=O)C(c4cc5ccccc5o4)N4CCN(C(c5ccccc5)c5ccccc5)CC4)CC3)c2c1 (some centres not stated) noted as 100

Lab book: Inhibition of COc1cccc(CC(=O)N2CCC(n3c(C)nc4ccc(C)cc43)CC2)c1 noted as 100

Lab book: Inhibition of COc1ccc(CNC2CCN(C)CC2)cc1-c1ccc(S(=O)(=O)NCc2ccccc2)s1.O=C(O)C(F)(F)F noted as 100

Lab book: Inhibition of Cc1cc(O)c(-c2cccc(Oc3ccc(Cl)cc3)c2)c(C)n1 noted as 96

Lab book: Inhibition of Cc1cc(=NN=Cc2ccccc2F)c2cccc(C)c2[nH]1 noted as 100

Lab book: Inhibition of CC(=O)N(C)c1cccc(C(=O)Nc2ccc(-c3cccc(-c4nc5cccc(C)c5[nH]4)c3)cc2)c1 noted as 97

Lab book: Inhibition of COc1ccc2nccc([C@@H](O)CN3CCC(NC(=O)c4nc(Cl)c(Cl)c(N)c4Cl)CC3)c2c1.CS(=O)(=O)O noted as 87

Lab book: Inhibition of COc1ccc(NC(=O)Nc2cc(C)nc3cccnc23)cc1Cn1ccnc1 noted as 100

Lab book: Inhibition of O=C(NC1CCC(N2CCC(c3nc4ccccc4s3)CC2)CC1)c1cc2ccccc2[nH]1 (configuration not stated) noted as 94

Lab book: Inhibition of C=CCN1C(=O)c2[nH]nc(-c3cc(C)c(C)cc3O)c2C1c1cccc(Br)c1 (configuration not stated) noted as 90

Lab book: Inhibition of O=C(Nc1ccc(Cn2ncc(N3CCCNCC3)c(Cl)c2=O)cc1)Nc1cc(F)cc(C(F)(F)F)c1.O=C(O)C(F)(F)F noted as 100

Lab book: Inhibition of O=C(NCc1ccccc1)c1ncn(CCCN2CCC(N3CCCC3)CC2)c1-c1ccc(Cl)c(Cl)c1.O=CO noted as 89

Lab book: Inhibition of CC(C)(C)c1ccc(C(=O)Nc2ccc(NC(=O)c3ccc([N+](=O)[O-])o3)cc2)cc1 noted as 81

Lab book: Inhibition of COc1cc(CN2CCC(NC(=O)[C@H](Cc3ccccc3)NC(=O)Nc3ccc(Oc4ccccc4)cc3)C2)ccc1O (some centres not stated) noted as 92

Lab book: Inhibition of COc1ccc2nccc(N/N=C/c3cccc([N+](=O)[O-])c3)c2c1 noted as 100

Lab book: Inhibition of Cl.Clc1ccc2c(NCCc3ccccc3)ccnc2c1 noted as 93

Lab book: Inhibition of O=[N+]([O-])c1ccc(-c2ccc(C=NNc3nc(Nc4ccccc4)nc(Nc4ccccc4)n3)o2)cc1 noted as 91

Lab book: Inhibition of COc1ccc2nc3cc(Cl)ccc3c(NCCO)c2c1.Cl noted as 100

Lab book: Inhibition of COc1ccc(CN(C)CC(O)COc2ccc(NC(=O)c3cccc4c(=O)c5cccc(OC)c5[nH]c34)cc2)cc1OC (configuration not stated) noted as 93

Lab book: Inhibition of CCN(CC)CCCC(C)Nc1c2ccc(Cl)cc2nc2ccc(OC)cc12.Cl.O (configuration not stated) noted as 100

Lab book: Inhibition of Br.N=C(N)c1ccc(C(=O)Nc2cccc(C(=N)N)c2)cc1 noted as 88

Lab book: Inhibition of O=C(O)C(F)(F)F.OC1CCCN(Cc2cccc(-c3ccc(-c4nc5cc(C(F)(F)F)ccc5[nH]4)cc3)c2)C1 (configuration not stated) noted as 100

Lab book: Inhibition of COc1ccc2ncc(F)c([C@H](O)CN3CCC(NCc4ccc5c(c4)NC(=O)CO5)CC3)c2c1.Cl noted as 100
